Reported MIC Staphylococcus aureus (GC 4542) values for a set of compounds
System: Staphylococcus sp.
method: in vitro antibacterial evaluation, MIC by broth dilution
Assay type: cell-based
recorded.conditions: strain GC 4542; broth dilution, 18 hours at 35° C.
Form entry: value (µg/mL) — number only.

Use the examples below as a reference point.
{"columns": ["compound", "MIC Staphylococcus aureus (GC 4542), µg/mL"],
 "data": [
  ["CC(C)=CCN1CC(C(O)C2NC(=O)C(C(O)C3CNC(=N)N3)NC(=O)C(Cc3ccc(OC4OC(CO)C(OC5OC6COC7(OC6C(O)C5O)C5CC6CC(C5)CC7C6)C(O)C4O)cc3)NC(=O)C(C(C)c3ccccc3)NC(=O)CNC(=O)C(CO)NC2=O)N(C2OC(CO)C(O)C(O)C2O)C1=N (stereo not shown)", 8],
  ["CC(C)CC(=O)OC1C(O)C(OC2C(CO)OC(Oc3ccc(CC4NC(=O)C(C(C)c5ccccc5)NC(=O)CNC(=O)C(CO)NC(=O)C(C(O)C5CNC(=N)N5C5OC(CO)C(O)C(O)C5O)NC(=O)C(C(O)C5CNC(=N)N5)NC4=O)cc3)C(O)C2O)OC2COC3(OC21)C1CC2CC(C1)CC3C2 (stereo not shown)", 4],
  ["CC(c1ccccc1)C1NC(=O)CNC(=O)C(CO)NC(=O)C(C(O)C2CNC(=N)N2C2OC(CO)C(O)C(O)C2O)NC(=O)C(C(O)C2CNC(=N)N2)NC(=O)C(Cc2ccc(OC3OC(CO)C(OC4OC(COC(=O)OCc5ccccc5)C(O)C(O)C4O)C(O)C3O)cc2)NC1=O (stereo not shown) [Example 101a]", 4],
  ["CC(c1ccccc1)C1NC(=O)CNC(=O)C(CO)NC(=O)C(C(O)C2CNC(=N)N2C2OC(CO)C(O)C(O)C2O)NC(=O)C(C(O)C2CNC(=N)N2)NC(=O)C(Cc2ccc(OC3OC(CO)C(OC4OC5COC6(CC7CCC6(C)C7(C)C)OC5C(O)C4O)C(O)C3O)cc2)NC1=O (stereo not shown)", 1],
  ["CC(c1ccccc1)C1NC(=O)CNC(=O)C(CO)NC(=O)C(C(O)C2CNC(=N)N2C2OC(CO)C(O)C(O)C2O)NC(=O)C(C(O)C2CNC(=N)N2)NC(=O)C(Cc2ccc3oc(-c4ccc(Br)cc4)nc3c2)NC1=O (stereo not shown)", 8]
]}

Query :: Report MIC Staphylococcus aureus (GC 4542), nothing else, for this compound: CC(c1ccccc1)C1NC(=O)CNC(=O)C(CO)NC(=O)C(C(O)C2CNC(=N)N2C2OC(CO)C(O)C(O)C2O)NC(=O)C(C(O)C2CNC(=N)N2)NC(=O)C(Cc2ccc3oc(SCC(=O)c4ccc(Cl)cc4)nc3c2)NC1=O (stereo not shown)
Result :: 4

Query :: Using the record for Cc1ccc(Oc2cccc(-c3nc4cc(CC5NC(=O)C(C(C)c6ccccc6)NC(=O)CNC(=O)C(CO)NC(=O)C(C(O)C6CNC(=N)N6C6OC(CO)C(O)C(O)C6O)NC(=O)C(C(O)C6CNC(=N)N6)NC5=O)ccc4o3)c2)cc1 (stereo not shown) , state its measured MIC Staphylococcus aureus (GC 4542).
Result :: 8
